# Tested on: UACC-257
# assay.details: NCI tumour cell line growth inhibition, 48 h
Calls of active or inactive are those of the source. Rule as the data show it: active = GI50 up to about 1.1 µM and inactive = higher.
measured.quantity: GI50

Cc1ccc(C(=O)N/N=C(\N=N\c2ccccc2Cl)c2ccc(N(C)C)cc2)cc1: 27.5 µM (inactive)
Cc1cc2c(cc1C)[n+]([O-])c(C(=O)C/C(=N/NC(=S)NN)C(=O)Nc1cccc(C(F)(F)F)c1)c[n+]2[O-]: > 100 µM (inactive)
CCCCCCCc1cscc1-c1cscc1Br: 31.6 µM (inactive)
CC(C)=CCC/C(C)=C/COC(C)(C)C1=CCC(C)CC1.CC(C)=CCC/C(C)=C/COC1CC(C)CCC1=C(C)C (centres undefined): 63.8 µM (inactive)
CCC1c2[nH]c3ccccc3c2C[C@H]2C(=O)N3CCC[C@H]3C(=O)N12 (some centres undefined): 48.6 µM (inactive)

So for `Cc1cc2nc(-c3c(F)cccc3F)n(Cc3c(F)cccc3F)c2cc1C` , the logged GI50 turned out to be 16.1 µM (inactive)

Recorded GI50 (compound COc1cc(C(C)c2cc3c(cc2OCCOCCOc2cc4c(cc2C(C)c2cc(OC)c(OC)c(OC)c2)OCO4)OCO3)cc(OC)c1OC (centres undefined) ): > 10 µM (inactive)

Reported GI50 of C=C(C)C1Cc2c(cc(O)c3c(=O)c4ccccc4n(C)c23)O1 (centres undefined) : > 100 µM (inactive)

----------
# GI50 annotations
# Tested on: UO-31
# assay.details: NCI tumour cell line growth inhibition, 48 h
Activity calls are given as the source filed them. No stated cut-off is given here; in the data, active = GI50 up to about 1.1 µM and inactive = higher.

Worked examples, 5 compounds total:
O=C(NCCCN1CCN(CCCNC(=O)c2cc(-c3ccccc3)nc3ccccc23)CC1)c1cc(-c2ccccc2)nc2ccccc12: 9.18 µM (inactive)
COc1ccccc1N1CCN(S(=O)(=O)c2ccc(Cl)cc2)C1=N: 33.3 µM (inactive)
N#Cc1nsnc1-c1nc(-c2nsnc2C#N)nc(-c2nsnc2C#N)n1: > 100 µM (inactive)
O=c1oc2ccccc2c(-c2ccc(O)cc2)c1Oc1ccccc1: 7.73 µM (inactive)
CC(=O)OCC1OC(Oc2cc(C)c(O)cc2C/C=C(\C)CC/C=C(\C)C[C@@H](C=C(C)C)OC(C)=O)C(O)C(OC(C)=O)C1OC(C)=O (stereo partly drawn): 18 µM (inactive)

The value of GI50 recorded for CCc1ncc(C(C)(O)c2ccccc2)n1Cc1ccccc1 (stereo not drawn) when tested on UO-31 reads 55.1 µM (inactive)

Entry `CCOc1ccccc1/N=C\c1c2ccccc2cc2ccccc12` : GI50 on UO-31 = 18.6 µM (inactive)

Form: item Nc1ncnc2c1ncn2C1C(O)C=C(CO)C1O (stereo not drawn) ; test system UO-31; GI50: > 625 µM (inactive)

----------
# Test system: HL-60
# assay.details: NCI tumour cell line growth inhibition, 48 h
Activity calls are given as the source filed them. Cut-off read from the data, not from the text of the source: active = GI50 up to about 1.1 µM and inactive = higher.
measured.quantity: GI50

Value (GI50, HL-60) for record N#CC(C(=O)Nc1ccccc1)C1=C(Cl)C(=O)c2ccccc2C1=O (stereo not drawn) = 4.23 µM (inactive)

Item CCOC(=O)C1=C(C)OC2(O)C=CC(O)=C3C(=O)N(c4ccccc4)C(=O)C312 (stereo not drawn) was tested on HL-60; the reported GI50 is 29.4 µM (inactive)

Assay HL-60, sample O=C(O)C(NCc1ccccc1)C(NCc1ccccc1)C(=O)O (stereo not drawn) , GI50 read: > 100 µM (inactive)

----------
# Tested on: HOP-92
# assay.details: NCI tumour cell line growth inhibition, 48 h
Activity calls are given as the source filed them. Cut-off read from the data, not from the text of the source: active = GI50 up to about 1.1 µM and inactive = higher.
Answer with one of the outcomes 1 = active, -1 = inactive

// known answers, use as guide
O=c1cc(O)c1=O: -1
COC1Cc2c(C)c(OC(C)=O)c3cccnc3c2O1 (stereo not drawn): -1
CC#CCCCC1(C)CCCNC1=S (stereo not drawn): -1
O=C(CBr)NCCc1c[nH]c2ccccc12: -1

Task item: Field: outcome | Entry: CC1(C)CCCCCCC2OC2CCCCCC(C)(C)C1=O (stereo not drawn)
Reply: -1

----------
# Tested on: PC-3
# assay.details: NCI tumour cell line growth inhibition, 48 h
The source made the active and inactive calls. Rule as the data show it: active = GI50 up to about 1.1 µM and inactive = higher.
molecules and their reported GI50

Worked cases, GI50 given:
O=c1c2ccccc2[nH]c2c(Cl)cc(Cl)c(NC3CCCCC3)c12: 22.8 µM (inactive)
CC(=O)Oc1cc(C)c(OC(C)=O)c2c1[C@H]1CC[C@]3(C)[C@@H](OC(C)=O)CC[C@H]3[C@@H]1CC2: 13.9 µM (inactive)
CCOC(=O)c1sc2nc(SC)nc(N3CCCCC3)c2c1N: > 100 µM (inactive)

For record COc1ccc(/C=N\N2CC(=O)N3C4C=CC(CC4)N3C2=O)cc1 (centres undefined) the listed GI50 is > 100 µM (inactive)

----------
# Tested on: Malme-3M
# assay.details: NCI tumour cell line growth inhibition, 48 h
Activity calls are given as the source filed them. Cut-off read from the data, not from the text of the source: active = GI50 up to about 1.1 µM and inactive = higher.
measured.quantity: GI50

# count of solved cases: 5
CC(C)(C)OC(=O)N/C=C1\C(=O)Oc2ccccc2C1=O: 31.3 µM (inactive)
S=C(NN=C1NCCCN1)Nc1ccccc1: > 100 µM (inactive)
CCOC(=O)C1=C(C)N(c2ccc(C)cc2)C2=C(C(=O)N(c3ccccc3)C2c2ccccc2)C1c1ccccc1 (stereo unspecified): > 25 µM (inactive)
COc1ccc(/C(C#N)=C(/N)SCc2ccccc2Cl)cc1: 17.5 µM (inactive)
CCNC(=O)COc1ccc(Cl)c(C)c1: > 100 µM (inactive)

Record `CCSc1nc(=S)n(-c2ccccc2)c(C)c1C(C)=O` / Malme-3M, GI50 recorded as > 100 µM (inactive)

----------
# Tested on: DLD-1
# assay.details: NCI tumour cell line growth inhibition, 48 h
Activity calls are given as the source filed them. Cut-off read from the data, not from the text of the source: active = GI50 up to about 1.1 µM and inactive = higher.
The following compounds are listed with their measured GI50 values.

Nc1ccc(S(=O)(=O)Nc2cnc3ccccc3n2)cc1 [SULFAQUINOXALINE]: > 100 µM (inactive)

# GI50 of CC(CCCOC(c1ccccc1)(c1ccccc1)c1ccccc1)OC(=O)Nc1ccccc1 (stereo not drawn) = 13.7 µM (inactive)

Value of measured GI50 for the entry `C/C(CN1C(=O)c2ccccc2C1=O)=N\NS(=O)(=O)c1cccc([N+](=O)[O-])c1` : > 100 µM (inactive)

----------
# Tested on: UACC-62
# assay.details: NCI tumour cell line growth inhibition, 48 h
The source made the active and inactive calls. Cut-off read from the data, not from the text of the source: active = GI50 up to about 1.1 µM and inactive = higher.
Outcome (select one): true (1) for active, false (0) for inactive

Reference set, count: 4
CS(=O)(=O)Nc1ccc2ccccc2c1: false (0)
C[C@H](NS(=O)(=O)c1ccc(NC(=O)c2ccccc2)cc1)C(=O)O: false (0)
CC(C)=CC(=O)OC1C2C(C)=CC(=O)C(O)C2(C)C2C3(O)OCC24C(CC(=O)OC14)C(C)C3O (stereo not given): true (1)
C=C1C(=O)O[C@H]2C/C(C)=C/CC[C@]3(C)CCC[C@](C)(CC[C@@H]12)O3: false (0)

Task item: Test call for this compound, please: `O=C1CSc2ccnc(=O)n21`
Reply: false (0)

Task item: Query: recorded result category for CC(O)(P(=O)(O)O)P(=O)(O)OCC(O)CN1CCOCC1 (stereo not given) in this test
Reply: false (0)

Task item: Record request — test call for `Cc1c(C(=O)C/C(=N/NC(=O)c2ccccc2O)C(=O)Nc2ccccc2C(C)C)[n+]([O-])c2ccccc2[n+]1[O-]`
Reply: false (0)

----------
Below, each entry is listed alongside its reported GI50.
# System: UACC-257
# assay.details: NCI tumour cell line growth inhibition, 48 h
Active and inactive are the calls of the source. No stated cut-off is given here; in the data, active = GI50 up to about 1.1 µM and inactive = higher.

Sample records with GI50:
CCCCC1Nc2ccccc2-c2ccnc(Cl)c21 (configuration not stated): 20 µM (inactive)
CC(=O)N1[C@H](C(=O)O)CS[C@H]1c1ccc(F)cc1: > 100 µM (inactive)
Nc1nc(N)c(N=O)c(Nc2ccc(O)cc2)n1: > 66.8 µM (inactive)
Nc1ccc(SC23CC4CC(CC(C4)C2)C3)cc1: > 100 µM (inactive)
COC(=O)[C@]1(c2cc3ccccc3n2S(=O)(=O)c2ccccc2)CC2CN(C(C)=O)C1CC2=O (some centres not stated): 2.77 µM (inactive)

Query CCc1ncc(C(C)(O)c2ccccc2)n1Cc1ccccc1 (configuration not stated) yields GI50 of 29.4 µM (inactive)

The reported value for `CSC1=Nc2ccccc2-c2nc(-c3ccccc3)cc(-c3ccccc3)c2C1` in terms of GI50 is 28.1 µM (inactive)

----------
# Tested on: OVCAR-4
# assay.details: NCI tumour cell line growth inhibition, 48 h
Active and inactive are the calls of the source. Rule as the data show it: active = GI50 up to about 1.1 µM and inactive = higher.
measured.quantity: GI50

NC1=C(O)c2cccc3cccc(c23)C1=O: > 100 µM (inactive)
O=C1C(=Cc2ccccc2[N+](=O)[O-])N=C(c2ccccc2)N1n1c(-c2ccccc2)nc2ccccc2c1=O: 33.4 µM (inactive)
O=C(NNCc1ccccc1O)c1ccccc1O: 26 µM (inactive)

`COC(=O)N[C@@H]1C[C@H]2CC[C@]1(O[Si](C(C)C)(C(C)C)C(C)C)C(=O)C2` yielded GI50 of 14.5 µM (inactive)

// recorded GI50 for CCC1CNC(=O)CC1CC(=O)OC (stereo unspecified) : > 100 µM (inactive)

Lab note: `COc1cc2cc3c4cc(OC)c(OC)cc4cc[n+]3c(C)c2cc1OC.O=C([O-])CS(=O)(=O)O` gave GI50 of 17.7 µM (inactive)

GI50 in this record for `CCCC[Si](CCCC)(CCCC)O[C@@H](/C=C/C(=O)OCC)[C@H](Cc1ccccc1)O[Si](CCCC)(CCCC)CCCC` : > 100 µM (inactive)

Recorded GI50 (molecule `CCCOP(=S)(N1CC1)N1CC1` ): > 100 µM (inactive)

GI50 for `S=C(NC/C(Br)=C/Br)Nc1cccc2ccccc12` is 30.3 µM (inactive)
